Task for the reader: assign each of the following compounds its reported MIC.
Tested on: H. influenzae ATCC 49247
experimental protocol: MIC determination, broth microdilution (CLSI)
Format: cell-based
condition set: Haemophilus influenzae, ATCC49247, strain 12; broth microdilution; read-out: MIC strain 12 (H. influenzae ATCC 49247)

query: I am curious: what MIC value has been reported for CC1(C)[C@H](NC(=O)/C(=N\OCCCOc2ccc(C(=N)N)cc2)c2csc(N)n2)C(=O)N1OS(=O)(=O)O ?
result: 0.5 µg/mL

query: Fill in the blank: the reported MIC of C[C@H]1[C@H](NC(=O)/C(=N\OCCOc2ccc(C(=N)NN)cc2)c2csc(N)n2)C(=O)N1S(=O)(=O)O is ____.
result: 8 µg/mL

query: For CC1(C)[C@H](NC(=O)/C(=N\O[C@@H](COc2ccc(C(=N)NC(CN)CN)cc2)C(=O)O)c2csc(N)n2)C(=O)N1OS(=O)(=O)O , what is its reported MIC?
result: ≤ 0.063 µg/mL

====

Test system: E. coli ATCC25922
experimental protocol: MIC determination, broth microdilution (CLSI)
Type: cell-based
condition set: Escherichia coli, ATCC25922, strain 1
What MIC was measured for each of the following?
Kindly answer with a numeric value in µg/mL, unit omitted.

query: Request body: readout MIC, system E. coli ATCC25922, query CC1(C)[C@H](NC(=O)/C(=N\OCCOc2ccc(C3=NCC(CN)N3)cc2)c2csc(N)n2)C(=O)N1OS(=O)(=O)O (stereo partly drawn) . Return the value.
result: 0.125

query: Report MIC for CC1(C)[C@H](NC(=O)/C(=N\OCCOc2ccc(C(=N)NCCNC=N)cc2)c2csc(N)n2)C(=O)N1OS(=O)(=O)O tested on E. coli ATCC25922.
result: 0.125

query: Observed MIC on E. coli ATCC25922 for C[C@H]1[C@H](NC(=O)/C(=N\OCCSc2ccc(C(=N)N)cc2)c2csc(N)n2)C(=O)N1S(=O)(=O)O , please.
result: 0.125

query: Request body: readout MIC, system E. coli ATCC25922, query CC1(C)[C@H](NC(=O)/C(=N\OCCOc2ccc(C(=N)NC3CNNC3)cc2)c2csc(N)n2)C(=O)N1OS(=O)(=O)O . Return the value.
result: 0.5

query: Quick check: MIC on E. coli ATCC25922, item C[C@H]1[C@H](NC(=O)/C(=N\OCCOc2ccc(C(=N)N)cc2COC=O)c2csc(N)n2)C(=O)N1S(=O)(=O)O ?
result: 1

====

System: P. aeruginosa 2297-con (AmpC derepressed)
experimental protocol: MIC determination, broth microdilution (CLSI)
Format: cell-based
condition set: Pseudomonas aeruginosa, read-out: strain 8 MIC, strain 8
measured attribute: log10(MIC) (log10 of the value in µg/mL)
Values reflect log10 of reported MIC (µg/mL).

query: Item: CC1(C)[C@H](NC(=O)/C(=N\OC(COc2ccc(C(=N)NC3CCCNC3)cc2)C(=O)O)c2csc(N)n2)C(=O)N1OS(=O)(=O)O (stereo in doubt) Test system: P. aeruginosa 2297-con (AmpC derepressed) Read-out: log10(MIC) Value: ?
result: 0.00

query: Notebook entry, P. aeruginosa 2297-con (AmpC derepressed) assay: log10(MIC) of C[C@H]1[C@H](NC(=O)/C(=N\OCCOc2ccc(CC(=N)N)cc2)c2csc(N)n2)C(=O)N1S(=O)(=O)O = ?
result: 1.51

query: I'm curious: which log10(MIC) was measured for CC1(C)[C@H](NC(=O)/C(=N\OCCOc2ccc(C3=NCC(CN)N3)cc2)c2csc(N)n2)C(=O)N1OS(=O)(=O)O (stereo partly drawn) tested on P. aeruginosa 2297-con (AmpC derepressed)?
result: 0.30

query: Form field - read-out: log10(MIC); system: P. aeruginosa 2297-con (AmpC derepressed); submitted item: CC1(C)[C@H](NC(=O)/C(=N\OCCOc2ccc(C(=N)N[C@H]3CCNC3)cc2)c2csc(N)n2)C(=O)N1OS(=O)(=O)O
result: 0.30

query: Recorded log10(MIC) for CC1(C)[C@H](NC(=O)/C(=N\OCCOc2ccc(C(=N)NCCN)cc2)c2csc(N)n2)C(=O)N1OS(=O)(=O)O with P. aeruginosa 2297-con (AmpC derepressed), please?
result: 0.30

query: Which measured log10(MIC) belongs to CC1(C)[C@H](NC(=O)/C(=N\OC(COc2ccc(C(=N)N)cc2)CC(=O)O)c2csc(N)n2)C(=O)N1OS(=O)(=O)O (mixture of isomers) , tested on P. aeruginosa 2297-con (AmpC derepressed)?
result: 1.51

query: Identify the measured log10(MIC) of CC1(C)[C@H](NC(=O)/C(=N\OCCOc2ccc(C(=N)NCCNC(=N)N)cc2)c2csc(N)n2)C(=O)N1OS(=O)(=O)O for P. aeruginosa 2297-con (AmpC derepressed).
result: 0.30

query: Hi! What's the reported log10(MIC) for CN(C)C(=O)[C@@H]1C[C@H](NC(=N)c2ccc(OCCO/N=C(\C(=O)N[C@@H]3C(=O)N(OS(=O)(=O)O)C3(C)C)c3csc(N)n3)cc2)CN1 on P. aeruginosa 2297-con (AmpC derepressed)?
result: 1.20

query: Give P. aeruginosa 2297-con (AmpC derepressed) log10(MIC) for CC1(C)[C@H](NC(=O)/C(=N\OCCOc2cc(C(=N)N)ccn2)c2csc(N)n2)C(=O)N1OS(=O)(=O)O
result: 1.20

query: # value lookup — system P. aeruginosa 2297-con (AmpC derepressed), readout log10(MIC), item CC(C)(N)CNC(=N)c1ccc(OC[C@H](O/N=C(\C(=O)N[C@@H]2C(=O)N(OS(=O)(=O)O)C2(C)C)c2csc(N)n2)C(=O)O)cc1
result: 0.30

query: Form field: log10(MIC) recorded for CC1(C)[C@H](NC(=O)/C(=N\OCC(Oc2ccc(C(=N)N)cc2)C(=O)O)c2csc(N)n2)C(=O)N1OS(=O)(=O)O (single isomer, unassigned) [Example 87B] with P. aeruginosa 2297-con (AmpC derepressed) (enter value)
result: 1.51

query: Please state recorded log10(MIC) (tested on P. aeruginosa 2297-con (AmpC derepressed)) of C[C@H]1[C@H](NC(=O)/C(=N\OCCOc2cnc(C(=N)N)cn2)c2csc(N)n2)C(=O)N1S(=O)(=O)O
result: 1.51

query: Query the reported log10(MIC) for P. aeruginosa 2297-con (AmpC derepressed); item: CC1(C)[C@H](NC(=O)/C(=N\OCCOc2ccc(C(=N)NCC[N+]3(C)CCCC3)cc2)c2csc(N)n2)C(=O)N1OS(=O)(=O)O.O=C([O-])C(F)(F)F
result: 0.60

query: Give log10(MIC) (P. aeruginosa 2297-con (AmpC derepressed)) of the following compound: CC1(C)[C@H](NC(=O)/C(=N\O[C@@H](COc2ccc(C(=N)N[C@@H]3CCNC3)cc2)C(=O)O)c2csc(N)n2)C(=O)N1OS(=O)(=O)O
result: 0.00

query: Under P. aeruginosa 2297-con (AmpC derepressed): log10(MIC) value of CC1(C)[C@H](NC(=O)/C(=N\OCc2ccc(C(=N)N)cc2)c2csc(N)n2)C(=O)N1OS(=O)(=O)O ?
result: 1.20

query: Item C[C@H]1[C@H](NC(=O)/C(=N\OCCOc2ccc(C(=N)N)cn2)c2csc(N)n2)C(=O)N1S(=O)(=O)O with P. aeruginosa 2297-con (AmpC derepressed) - log10(MIC)?
result: 1.51

query: // map CC1(C)[C@H](NC(=O)/C(=N\OCCOc2ccc(C(=N)NCc3ccccn3)cc2)c2csc(N)n2)C(=O)N1OS(=O)(=O)O to recorded log10(MIC) (system: P. aeruginosa 2297-con (AmpC derepressed))
result: 1.51

query: Hi! What's the reported log10(MIC) for CC1(C)[C@H](NC(=O)/C(=N\OCCOc2ccc(C(=N)NCCNC=N)cc2)c2csc(N)n2)C(=O)N1OS(=O)(=O)O on P. aeruginosa 2297-con (AmpC derepressed)?
result: 0.60

query: For P. aeruginosa 2297-con (AmpC derepressed), provide log10(MIC) of CC1(C)[C@H](NC(=O)/C(=N\O[C@@H](COc2ccc(C(=N)NCCNc3ncccn3)cc2)C(=O)O)c2csc(N)n2)C(=O)N1OS(=O)(=O)O please.
result: 1.20

query: Please provide the recorded log10(MIC) for CC1(C)[C@H](NC(=O)/C(=N\OCCOc2ccc(C(=N)N3CCNCC3)cc2)c2csc(N)n2)C(=O)N1OS(=O)(=O)O , tested on P. aeruginosa 2297-con (AmpC derepressed).
result: 0.90

query: Form field: log10(MIC) recorded for C[C@H]1[C@H](NC(=O)/C(=N\OCCOc2ccc(C(=N)N)nc2)c2csc(N)n2)C(=O)N1S(=O)(=O)O with P. aeruginosa 2297-con (AmpC derepressed) (enter value)
result: 1.20

query: State its log10(MIC) on P. aeruginosa 2297-con (AmpC derepressed): C[C@H]1[C@H](NC(=O)/C(=N\OCc2ccc(C(=N)N)cc2)c2csc(N)n2)C(=O)N1S(=O)(=O)O
result: 1.51

query: Fill in the recorded log10(MIC) for this compound, with P. aeruginosa 2297-con (AmpC derepressed) as test system: CN(C)CCNC(=N)c1ccc(OCCO/N=C(\C(=O)N[C@@H]2C(=O)N(OS(=O)(=O)O)C2(C)C)c2csc(N)n2)cc1
result: 0.60

query: Query for P. aeruginosa 2297-con (AmpC derepressed): what log10(MIC) does the record show for CN1CC(NC(=N)c2ccc(OC[C@H](O/N=C(\C(=O)N[C@@H]3C(=O)N(OS(=O)(=O)O)C3(C)C)c3csc(N)n3)C(=O)O)cc2)C1 ?
result: 0.30
